Biological target: EGFR (human)
Conditions: a431
measure: IC50 (µM)

Brc1cccc(Nc2ncnc3ccc(NCc4ccc5c(c4)OCCCO5)cc23)c1	4.03
O=C(Nc1ccc2ncnc(Nc3cccc(Br)c3)c2c1)C1COc2ccccc2O1 (stereo not given)	65.3

a. Clc1cccc(Nc2ncnc3ccc(NCc4ccc5c(c4)OCCCO5)cc23)c1
b. O=C(Nc1ccc2ncnc(Nc3cccc(Br)c3)c2c1)c1cccc2c1OCCO2
c. O=C(Nc1ccc2ncnc(Nc3cccc(Cl)c3)c2c1)c1cccc2c1OCCO2
d. FC(F)(F)c1cccc(Nc2ncnc3cc4c(cc23)OCCO4)c1
e. Brc1cccc(Nc2ncnc3ccc(NCc4ccc5c(c4)OCO5)cc23)c1
Prompt: Order the records so the highest IC50 appears first and the lowest last. Answer format: the labels, ordered as requested.
Response: c, b, e, a, d

I. O=C(Nc1ccc2ncnc(Nc3cccc(Cl)c3)c2c1)C1COc2ccccc2O1 (stereo not given)
II. Cc1cccc(Nc2ncnc3cc4c(cc23)OCCO4)c1
Prompt: Pick one: I or II . Which one has the lower reported IC50? Refer to your chosen entry by its label in the reply.
Response: II

###

Target: EGFR (human) (UniProt P00533)
Sequence (P00533 whole entry, looked up): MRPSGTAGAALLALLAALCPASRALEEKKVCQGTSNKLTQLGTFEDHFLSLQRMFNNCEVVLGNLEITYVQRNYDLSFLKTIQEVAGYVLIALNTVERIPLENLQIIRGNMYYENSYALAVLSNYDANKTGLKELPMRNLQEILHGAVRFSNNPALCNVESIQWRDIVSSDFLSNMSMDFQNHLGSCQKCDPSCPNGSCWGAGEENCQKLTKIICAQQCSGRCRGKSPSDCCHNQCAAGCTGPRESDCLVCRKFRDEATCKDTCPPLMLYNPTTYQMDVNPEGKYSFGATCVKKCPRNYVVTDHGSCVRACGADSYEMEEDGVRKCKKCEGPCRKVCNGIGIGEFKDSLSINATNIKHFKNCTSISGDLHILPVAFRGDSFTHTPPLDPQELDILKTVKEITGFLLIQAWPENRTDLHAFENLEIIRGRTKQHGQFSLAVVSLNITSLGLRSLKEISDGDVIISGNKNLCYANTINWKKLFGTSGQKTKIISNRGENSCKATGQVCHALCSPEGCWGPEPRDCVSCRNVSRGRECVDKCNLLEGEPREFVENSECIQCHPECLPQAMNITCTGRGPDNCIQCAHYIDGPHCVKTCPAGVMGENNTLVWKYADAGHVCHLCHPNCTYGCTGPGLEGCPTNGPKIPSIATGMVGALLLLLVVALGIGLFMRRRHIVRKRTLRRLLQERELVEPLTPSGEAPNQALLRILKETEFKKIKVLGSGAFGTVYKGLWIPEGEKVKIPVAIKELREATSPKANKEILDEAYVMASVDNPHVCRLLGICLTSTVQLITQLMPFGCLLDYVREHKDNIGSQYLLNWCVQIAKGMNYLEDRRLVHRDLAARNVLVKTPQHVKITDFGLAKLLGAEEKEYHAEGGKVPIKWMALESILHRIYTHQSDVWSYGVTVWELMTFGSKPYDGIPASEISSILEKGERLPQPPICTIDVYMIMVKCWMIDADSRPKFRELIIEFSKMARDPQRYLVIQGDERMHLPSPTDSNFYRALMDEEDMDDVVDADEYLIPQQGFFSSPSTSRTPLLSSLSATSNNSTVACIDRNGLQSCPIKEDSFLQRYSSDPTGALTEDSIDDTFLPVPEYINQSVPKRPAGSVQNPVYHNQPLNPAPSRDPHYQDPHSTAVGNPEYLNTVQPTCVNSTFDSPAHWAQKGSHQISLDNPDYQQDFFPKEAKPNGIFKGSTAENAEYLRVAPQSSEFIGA
Conditions: mcf7
measure: IC50 (µM)

Brc1cccc(Nc2ncnc3ccc(NCc4ccc5c(c4)OCCO5)cc23)c1	14.6

I. O=C(Nc1ccc2ncnc(Nc3cccc(Br)c3)c2c1)C1COc2ccccc2O1 (stereo not given)
II. Clc1cccc(Nc2ncnc3ccc(NCc4ccc5c(c4)OCCCCO5)cc23)c1
Prompt: Pick one: I or II . Which one has the lower reported IC50? Refer to your chosen entry by its label in the reply.
Response: II
(II: 31.9 µM, I: 152 µM)

A. O=C(Nc1ccc2ncnc(Nc3cccc(Cl)c3)c2c1)c1cccc2c1OCCO2
B. Brc1cccc(Nc2ncnc3ccc(NCc4ccc5c(c4)OCCCO5)cc23)c1
Prompt: Pick one: A or B . Which one has the lower reported IC50? Refer to your chosen entry by its label in the reply.
Response: B
(B: 7.31 µM, A: 153 µM)

###

Molecular target: EGFR (human)
Conditions: a431
pIC50: −log10 of the molar value.
measure: pIC50

Clc1cccc(Nc2ncnc3ccc(NCc4ccc5c(c4)OCCCCO5)cc23)c1	4.70
Brc1cccc(Nc2ncnc3cc4c(cc23)OCCO4)c1	6.12

P. Fc1cc(Br)ccc1Nc1ncnc2cc3c(cc12)OCCO3
Q. Brc1cccc(Nc2ncnc3ccc(NCc4ccc5c(c4)OCCO5)cc23)c1
Prompt: When P and Q are compared, which has the higher number for pIC50? Refer to your chosen entry by its label in the reply.
Response: P
(P: 5.20, Q: 4.77)

###

Target: EGFR (human)
Settings: mcf7
measure: IC50 (µM)

A. Brc1cccc(Nc2ncnc3ccc(NCc4ccc5c(c4)OCO5)cc23)c1
B. O=C(Nc1ccc2ncnc(Nc3cccc(Br)c3)c2c1)c1cccc2c1OCCO2
C. Brc1cccc(Nc2ncnc3ccc(NCc4ccc5c(c4)OCCCCO5)cc23)c1
D. Clc1cccc(Nc2ncnc3ccc(NCc4ccc5c(c4)OCCCO5)cc23)c1
Prompt: Output the listed items in decreasing order of IC50. Answer format: the labels, ordered as requested.
Response: B, C, A, D

###

Molecular target: EGFR (human) (UniProt P00533)
Settings: a549
measure: IC50 (µM)

O=C(Nc1ccc2ncnc(Nc3cccc(Br)c3)c2c1)C1COc2ccccc2O1 (stereo not given)	112
Clc1cccc(Nc2ncnc3ccc(NCc4ccc5c(c4)OCCCO5)cc23)c1	45.1

I. Brc1cccc(Nc2ncnc3ccc(NCc4ccc5c(c4)OCCCO5)cc23)c1
II. O=C(Nc1ccc2ncnc(Nc3cccc(Br)c3)c2c1)c1cccc2c1OCCO2
Prompt: Pick one: I or II . Which one has the lower reported IC50? Refer to your chosen entry by its label in the reply.
Response: I

###

Target: EGFR (human)
Details: a549
measure: IC50 (µM)

Reference set, count: 2
O=C(Nc1ccc2ncnc(Nc3cccc(Cl)c3)c2c1)C1COc2ccccc2O1 (stereo not given)	91.6
Brc1cccc(Nc2ncnc3ccc(NCc4ccc5c(c4)OCCO5)cc23)c1	79.5

I. Clc1cccc(Nc2ncnc3ccc(NCc4ccc5c(c4)OCCCCO5)cc23)c1
II. Brc1cccc(Nc2ncnc3ccc(NCc4ccc5c(c4)OCO5)cc23)c1
Prompt: Pick one: I or II . Which one has the lower reported IC50? Refer to your chosen entry by its label in the reply.
Response: I

Sourced from the Kinase Knowledgebase extract (Sharma et al. 2016)
